# measured on: T1, recombinant human ILT3 ectodomain with C-terminal histidine tag (human, UniProt Q8NHJ6 22-259)
# T1 construct: also called recombinant ILT3; hILT3; not shown: C-terminal histidine tag
# run description: BLI (Octet Red), antibody on Protein A biosensors, recombinant ILT3 in solution
quantity: Kd (nM)
// units = nM; emit number, no label

Known results for binders:
binder	Kd (nM)
6H9_27D5 (antibody, V domains shown, Recombinant antibody from CHO cells) VH: QVELQQSGPGLVKPSETLSLTCTVSGGSISTYFWSWTRQPPGKGLEWIGYTNYRGNTNYNPSLESRVTISVDTSKNQFSLKLSSVTAADTAVYYCARRGGYYGSGNYGGMDVWGQGTTVTVSS VL: DIQMTQSPSSLSASVGDRVTITCRASQGISNYLAWYQQKPGKVPKLLIYAASTLQSGVPSRFSGSGSGTDFTLTISSLQPEDLATYYCQKYDSAPWTFGQGTKLEIK	1
3H3_24B2 (antibody, V domains shown, Recombinant antibody from CHO cells) VH: QIQLQESGPGLVNPSKTLSLTCTVSGGSIRSYFWSWIRQPPGKGLEWIGYIYDSGNTNYNPSLKSRVTISVDTSKNHFSLKLSSVTAADTAVYYCARRGGYYGSGNYGGMDVWGQGTTVTVSS VL: DIQMTQSPSSLSASVGDRVTITCRASQGISNYLAWYQQKPGKVPKLLIYAASTLQSGVPSRFSGSGSGTDFTLTISSLQPEDVATYYCQKYNSAPWTFGQGTKLEIK	40
3D8D11 (antibody, V domains shown, Recombinant antibody from CHO cells) VH: QVQLQESGPGLVKPSETLSLTCTVSGGSISSYFWSWIRQPPGKGLEWIGYIYYSGSTNYNPSLKSRVTISVDTSKNQFSLKLSSVTAADTAVYYCARRGGYSYGYGYYGMDVWGQGTTVTVSS VL: DIQMTQSPSSLSASVGDRVTITCRASQGISNYLAWYQQKPGKVPKLLIYAASTLQSGVPSRFSGSGSGTDFTLTISSLQPEDVATYYCQKYNSAPWTFGQGTKLEIK	170
4F4_27D3 (antibody, V domains shown, Recombinant antibody from CHO cells) VH: QVQLQESGPGLVKPSETLSLTCTVSGGSISSHYWSWIRQPPGKGLEWIGYIYYNGGTNYKPSLKSRVTISVDTSKNQFSLKLTSVTAADTAVYYCAGRRYYYDSSGYLDYWGQGTLVTVSS VL: DIQMTQSPSSLSASVGDRVTITCRASQGISNYLAWYQQKPGKVPKLLIYAASTLQSGVPSRFSGSGSGTDFTLTISSLQPEDVATYYCQKYNSAPWTFGQGTKLEIK	30

Next item in the queue.
Ask | I have this binder here, 8C7_24B1 (antibody, V domains shown, Recombinant antibody from CHO cells) VH: QVQLQESGPGLVKPSETLSLTCTVSGGSISSYYWSWIRQPPGKGLEWIGYIHYSGSTNYNPSLKSRVTISEDTSKNQFSLKLSSVTAADTAVFYCAGRRYYYDSSGYLDYWGQGTLVTVSS VL: DIQMTQSPSSLSASVGDRVTITCRASQGISNYLAWYQQKPGKVPKLLIYAASTLQSGVPSRFSGSGSGTDFTLTISSLQPEDVATYYCQKYNSAPWTFGQGTKLEIK , and I need its recorded Kd.
Reply | 60

Just for reference, patent US20220227863A1 is where these values come from.
